Reference for the values: patent US20040235761A1

# system_name: Inosine monophosphate dehydrogenase (IMPDH)
# test_protocol: Inosine monophosphate dehydrogenase (IMPDH) inhibition test
# run_parameters: IMPDH enzyme solution from MDCK cell homogenate, 37° C., 1 hour; read-out: 50% inhibition concentration
Measured IC50 accompanies every entry in the list below.

[
  {
    "compound": "NC(=O)c1nccn([C@@H]2O[C@H](COP(=O)(O)O)[C@@H](O)[C@H]2O)c1=O [Reference Example 30]",
    "IC50 (µM)": 980
  },
  {
    "compound": "NC(=O)c1nc(F)cn([C@@H]2O[C@H](COP(=O)(O)O)[C@@H](O)[C@H]2O)c1=O",
    "IC50 (µM)": 740
  },
  {
    "compound": "NC(=O)c1ncn([C@@H]2O[C@H](COP(=O)(O)O)[C@@H](O)[C@H]2O)n1 [Control compound, Ribavirin monophosphate, reference compound]",
    "IC50 (µM)": 1.9
  }
]
